meta.source: patent US12692254B2

Would you mind telling me the reported IC50 of each entry?
Target: UniProt Q9UM07
Assay: RFMS human PAD4 functional assay (rapid-fire mass spectrum)
Conditions: 5 nM hPAD4 enzyme, 250 μM BAEE, 50 μM Calcium; 30 min preincubation, 90 min reaction at 37° C.
Could you give me the number in nM? Just the number is fine.

Q) Given COC(=O)N[C@H]1C[C@@H](n2c(-c3cc4cccnc4n3CC3CC3)nc3cc(C(=O)N4CC5CCC4[C@@H]5N)cc(OC)c32)C1 (stereo partly drawn) [Example 301] , state its recorded IC50.
A) 1000

Q) Then COc1cc(C(=O)N2C[C@H]3CC[C@@H]2[C@@H]3N)cc2nc(-c3cc4cccnc4n3CC3CC3)n(C3CN(C(=O)c4ccncn4)C3)c12 [Example 100] ?
A) 117

Q) Field entry: COc1cc(C(=O)N2C[C@H]3CC[C@@H]2[C@@H]3N)cc2nc(-c3cc4cccnc4n3CC3CC3)n(C3CN(c4cncnc4)C3)c12 [Example 76]
A) 292

Q) Now the same for COc1cc(C(=O)N2C[C@H]3CC[C@@H]2[C@@H]3N)cc2nc(-c3cc4cccnc4n3CC3CC3)n(CC3CN(C(=O)C#Cc4ccccc4)C3)c12 [Example 109]
A) 41

Q) Also need COc1cc(C(=O)N2CC3CCC2[C@@H]3N)cc2nc(-c3cc4cccnc4n3CC3CC3)n(Cc3cn[nH]c3)c12 (stereo partly drawn) [Example 488] , thanks.
A) 55

Q) Another: COc1cc(C(=O)N2C[C@H]3CC[C@@H]2[C@@H]3N)cc2nc(-c3cc4cccnc4n3CC3CC3)n(CC3CN(c4cncnc4)C3)c12 [Example 27]
A) 72

---

Molecular target: human PAD4 (hPAD4) (Homo sapiens)
Experiment: RFMS human PAD4 functional assay (rapid-fire mass spectrum)
Conditions: 5 nM hPAD4 enzyme, 250 μM BAEE, 50 μM Calcium; 30 min preincubation, 90 min reaction at 37° C.
quantity kind: IC50
Report the figure along with its unit, number first.

Q) Given the molecule COC(=O)c1cc(C(=O)N2CC(Cn3c(-c4cc5cccnc5n4CC4CC4)nc4cc(C(=O)N5C[C@H]6CC[C@@H]5[C@@H]6N)cc(OC)c43)C2)ccn1 [Example 129] , what is its reported IC50?
A) 116 nM

Q) Subsequent entry: COc1cc(C(=O)N2CC3CCC2[C@@H]3N)cc2nc(-c3cc4cccnc4n3CC3CC3)n(CC3CN(C(=O)Nc4ccccc4)C3)c12 (stereo partly drawn) [Example 455]
A) 59 nM

Q) Could you do the same for COc1cc(C(=O)N2C[C@H](N)C[C@@H](F)C2)cc2nc(-c3cc4cccnc4n3CC3CC3)n(CC3(F)CN(C(=O)c4ccccc4)C3)c12 [Example 468] , please?
A) 99 nM

---

Molecular target: human PAD4 (hPAD4) (Homo sapiens, UniProt Q9UM07)
Sequence (Q9UM07 whole entry): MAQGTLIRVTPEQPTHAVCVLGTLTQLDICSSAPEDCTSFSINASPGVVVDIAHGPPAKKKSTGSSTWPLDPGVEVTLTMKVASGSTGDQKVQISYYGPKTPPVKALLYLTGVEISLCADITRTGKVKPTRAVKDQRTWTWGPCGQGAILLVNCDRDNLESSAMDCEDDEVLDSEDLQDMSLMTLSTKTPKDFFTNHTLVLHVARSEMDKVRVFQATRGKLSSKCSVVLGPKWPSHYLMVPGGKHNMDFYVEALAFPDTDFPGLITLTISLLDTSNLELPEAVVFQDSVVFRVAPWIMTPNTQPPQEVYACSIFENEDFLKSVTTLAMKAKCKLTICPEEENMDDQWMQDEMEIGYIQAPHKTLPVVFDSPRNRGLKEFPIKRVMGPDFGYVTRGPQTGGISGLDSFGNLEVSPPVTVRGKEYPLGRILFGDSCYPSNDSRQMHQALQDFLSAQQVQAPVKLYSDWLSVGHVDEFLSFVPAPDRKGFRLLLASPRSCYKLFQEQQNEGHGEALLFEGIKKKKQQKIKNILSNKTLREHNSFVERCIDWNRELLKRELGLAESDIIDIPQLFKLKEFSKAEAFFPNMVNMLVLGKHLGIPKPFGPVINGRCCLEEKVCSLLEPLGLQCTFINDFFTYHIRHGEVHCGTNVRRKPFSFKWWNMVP
Experiment: RFMS human PAD4 functional assay (rapid-fire mass spectrum)
Conditions: 5 nM hPAD4 enzyme, 250 μM BAEE, 50 μM Calcium; 30 min preincubation, 90 min reaction at 37° C.
Field: IC50. Provide a value for each of the compounds that follow.
Give the value, in units of nM, as a plain number.

Q) Item COc1cc(C(=O)N2CC(Cn3c(-c4cc5ccccc5n4CC4CC4)nc4cc(C(=O)N5CC6CCC5[C@@H]6N)cc(OC)c43)C2)ccn1 (stereo partly drawn) with human PAD4 (hPAD4) (Homo sapiens, UniProt Q9UM07) - IC50?
A) 11

Q) What about `COc1cc(C(=O)N2C[C@H](N)C[C@@H](F)C2)cc2nc(-c3cc4ccccc4n3CC3CC3)n(CC3CN(C(=O)c4ccc(C#N)cc4)C3)c12` ?
A) 28

Q) Item: CCc1ccccc1-c1nc2cc(C(=O)N3CC4CCC3[C@@H]4N)cc(OC)c2n1CC1CN(c2cncc(C)c2)C1 (stereo partly drawn)
A) 2990

---

Target: human PAD4 (hPAD4) (Homo sapiens)
Assay: RFMS human PAD4 functional assay (rapid-fire mass spectrum)
Conditions: 5 nM hPAD4 enzyme, 250 μM BAEE, 50 μM Calcium; 30 min preincubation, 90 min reaction at 37° C.
pIC50: −log10 of the molar value.
Label true when pIC50 is at or above 7; anything below gets false.

Q) hey, is pIC50 for this one >= 7? COc1cc(C(=O)N2CC3CCC2[C@@H]3N)cc2nc(-c3cc4cccnc4n3CC3CC3)n(Cc3cn[nH]n3)c12 (stereo partly drawn)
A) true

Q) Subsequent entry: `COc1cc(C(=O)N2C[C@H]3CC[C@@H]2[C@@H]3N)cc2nc(-c3cc4ccccc4n3CC3CC3)n(CC3CN(C(=O)C4CCCC4)C3)c12`
A) true

Q) How about `COc1cc(C(=O)N2C[C@H]3CC[C@@H]2[C@@H]3N)cc2nc(-c3cc4cccnc4n3CC3CC3)n(C3CCNCC3)c12` ?
A) false

Q) Note, next up: `COc1cc(C(=O)N2C[C@H]3CC[C@@H]2[C@@H]3N)cc2nc(-c3cc4cccnc4n3CC3CC3)n(C3CCN(C(=O)c4ccnc(F)c4)CC3)c12`
A) false

Q) What about `COc1cc(C(=O)N2C[C@H]3CC[C@@H]2[C@@H]3N)cc2nc(-c3csc4ccc(Cl)cc34)n(CC3CN(c4ccnc(C#N)n4)C3)c12` ?
A) false

Q) Would you kindly repeat that for `N[C@@H]1[C@@H]2CC[C@H]1N(C(=O)c1cc(F)c3c(c1)nc(-c1cc4ccccc4n1CC1CC1)n3CC1CN(C(=O)c3ccncc3)C1)C2` ?
A) true

Q) Note, next up: CCn1cc(Cn2c(-c3cc4ccccc4n3CC3CC3)nc3cc(C(=O)N4CC5CCC4[C@@H]5N)cc(OC)c32)cn1 (stereo partly drawn)
A) true

Q) // query: CNc1cc(C(=O)N2CC(Cn3c(-c4cc5ccccc5n4CC4CC4)nc4cc(C(=O)N5CC6CCC5[C@@H]6N)cc(OC)c43)C2)ccn1 (stereo partly drawn)
A) true

Q) Entry to check: `COc1cc(C(=O)N2C[C@H]3CC[C@@H]2[C@@H]3N)cc2nc(-c3cc4cccnc4n3CC3CC3)n(CC3CN(c4ccnc(C#N)n4)C3)c12`
A) true

Q) Then what about the compound `COc1cc(C(=O)N2C[C@H]3CC[C@@H]2[C@@H]3N)cc2nc(-c3cc4cccnc4n3C)n(CC3CN(c4ncccn4)C3)c12` ?
A) false

---

For each entry below, report its pIC50 value.
Target: human PAD4 (hPAD4) (Homo sapiens)
Assay: RFMS human PAD4 functional assay (rapid-fire mass spectrum)
Settings: 5 nM hPAD4 enzyme, 250 μM BAEE, 50 μM Calcium; 30 min preincubation, 90 min reaction at 37° C.
Schema: pIC50 number; meaning minus log10 of the concentration expressed in molar units.

Q) Using the record for `COc1cc(C(=O)N2C[C@H]3CC[C@@H]2[C@@H]3N)cc2nc(-c3cc4cccnc4n3CC3CC3)n(CC3CN(c4cc(C#N)cnc4C#N)C3)c12` , report its pIC50.
A) 7.42

Q) # iterate: `COc1cc(C(=O)N2C[C@H]3CC[C@@H]2[C@@H]3N)cc2nc(-c3cc4ccccc4n3CC3CC3)n(CC3CN(C(=O)c4ccccc4)C3)c12`
A) 7.74

Q) One more compound: `N#Cc1ccc(C(=O)N2CC(Cn3c(-c4cc5ccccc5n4CC4CC4)nc4cc(C(=O)N5C[C@H]6CC[C@@H]5[C@@H]6N)cc(Cl)c43)C2)cc1`
A) 7.70

Q) Query `COc1cc(C(=O)N2C[C@H]3CC[C@@H]2[C@@H]3N)cc2nc(-c3cc4ccccc4n3CC3CC3)n(CC3CN(C(=O)c4ccc(Cl)cc4)C3)c12` next
A) 7.51

Q) Input `COc1cc(C(=O)N2C[C@H](N)C[C@@H](F)C2)cc2nc(-c3cc4cccnc4n3CC3CC3)n(Cc3cc(C)nn3C)c12`
A) 6.30

Q) What about this compound? `COc1cc(C(=O)N2C[C@H](N)C[C@@H](F)C2)cc2nc(-c3cc4cccnc4n3CC3CC3)n(Cc3cn(C)nc3C)c12`
A) 6.59

Q) What would you report for `COc1cc(C(=O)N2C[C@H]3CC[C@@H]2[C@@H]3N)cc2nc(-c3cc4ccccc4n3CC3CC3)n(CCC3CCS(=O)(=O)CC3)c12` ?
A) 7.70

Q) Moving on to the next compound: COc1cc(C(=O)N2CC3CCC2[C@@H]3N)cc2nc(-c3cc4ccccc4n3CC3CC3)n(CC3CN(C(=O)c4ccsc4)C3)c12 (stereo partly drawn)
A) 8.00

Q) Field entry: `COc1cc(C(=O)N2C[C@H]3CC[C@@H]2[C@@H]3N)cc2nc(-c3cc4cccnc4n3CC3CC3)n(C[C@H]3CCN(c4cncc(C#N)n4)C3)c12`
A) 7.64

Q) Another compound to look at: COc1cc(C(=O)N2CC3CCC2[C@@H]3N)cc2nc(-c3cc4ccccc4n3CC3CC3)n(Cc3cnn(-c4cccnc4C#N)c3)c12 (stereo partly drawn)
A) 7.38

Q) Another compound to look at: `N#Cc1ccc(C(=O)N2CC(Cn3c(-c4cc5ccccc5n4CC4CC4)nc4cc(C(=O)N5C[C@H]6CC[C@@H]5[C@@H]6N)cc(F)c43)C2)cc1`
A) 7.92

Q) Lookup `COc1cc(C(=O)N2C[C@H]3CC[C@@H]2[C@@H]3N)cc2nc(-c3cc4ccccc4n3C)n(CC3CN(c4ccnc(C#N)n4)C3)c12`
A) 7.49
